Tested on: LOC_OS05G07850-cb002
procedure_text: thermal shift delta Tm vs DMSO control; higher = stronger stabilization (binding);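 further: purified Escherichia coli-expressed rice kinase domain construct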
setup_conditions: 12.5 µM; protein concentration 2 µM
Returns T if the recorded thermal shift delta Tm is greater than or equal to 5 °C, and F otherwise.

[[record]]
compound = "O=C(/C=C/c1ccc(O)c(O)c1)c1ccc(O)cc1O"
class_label = "T"

[[record]]
compound = "O=C1NC(=O)/C(=C/c2cccc(C(F)(F)F)c2)S1"
class_label = "F"

[[record]]
compound = "CC(C)(O)CNc1ncc(-c2ccnc(Nc3ccncc3)n2)c(CC2CC2)n1"
class_label = "T"

[[record]]
compound = "O=C(Nc1ccc(-c2ccnc(Nc3ccc(N4CCOCC4)cc3)n2)cc1)C1CCCN1 (configuration not stated)"
class_label = "T"

[[record]]
compound = "Cn1c2ccccc2c2c3c(c4c5ccccc5n(CCC#N)c4c21)CNC3=O"
class_label = "T"

[[record]]
compound = "COc1ccccc1-c1cc(Nc2cccc(CS(N)(=O)=O)c2)ncn1"
class_label = "T"

[[record]]
compound = "O=C(NOC[C@H](O)CO)c1ccc(F)c(F)c1Nc1ccc(I)cc1F"
class_label = "F"

[[record]]
compound = "Cc1ccc(F)c(NC(=O)Nc2ccc(-c3cccc4[nH]nc(N)c34)cc2)c1"
class_label = "F"

[[record]]
compound = "Cc1cnc(Nc2ccc(N3CCN(C)CC3)cc2)nc1Nc1cccc(S(=O)(=O)NC(C)(C)C)c1"
class_label = "T"

[[record]]
compound = "CN(C)S(=O)(=O)c1ccc2c(c1)/C(=C/c1cc3c([nH]1)CCCC3)C(=O)N2"
class_label = "T"

[[record]]
compound = "CC(C)(C)c1nc(-c2cccc(NS(=O)(=O)c3c(F)cccc3F)c2F)c(-c2ccnc(N)n2)s1"
class_label = "T"

[[record]]
compound = "CNC(=O)c1cc(Oc2ccc(NC(=O)Nc3ccc(Cl)c(C(F)(F)F)c3)c(F)c2)ccn1"
class_label = "F"

[[record]]
compound = "COc1nccc(-c2c(-c3ccc(F)cc3)ncn2C2CCC(O)CC2)n1 (configuration not stated)"
class_label = "F"

[[record]]
compound = "CCN1/C(=C/C(C)=O)Sc2ccc(OC)cc21"
class_label = "F"

[[record]]
compound = "CO[C@H]1C[C@@H]2CC[C@@H](C)[C@@](O)(O2)C(=O)C(=O)N2CCCC[C@H]2C(=O)O[C@H]([C@H](C)C[C@@H]2CC[C@@H](OCCO)[C@H](OC)C2)CC(=O)[C@H](C)/C=C(\\C)[C@@H](O)[C@@H](OC)C(=O)[C@H](C)C[C@H](C)/C=C/C=C/C=C/1C [Everolimus (RAD001)]"
class_label = "F"

[[record]]
compound = "C[C@@]1(C(=O)Nc2ccc(F)nc2)CCCN1c1nc(Nc2cc(C3CC3)n[nH]2)c2cccn2n1"
class_label = "T"


###

Test system: LOC_OS01G52050-cb004
Sequence (whole entry): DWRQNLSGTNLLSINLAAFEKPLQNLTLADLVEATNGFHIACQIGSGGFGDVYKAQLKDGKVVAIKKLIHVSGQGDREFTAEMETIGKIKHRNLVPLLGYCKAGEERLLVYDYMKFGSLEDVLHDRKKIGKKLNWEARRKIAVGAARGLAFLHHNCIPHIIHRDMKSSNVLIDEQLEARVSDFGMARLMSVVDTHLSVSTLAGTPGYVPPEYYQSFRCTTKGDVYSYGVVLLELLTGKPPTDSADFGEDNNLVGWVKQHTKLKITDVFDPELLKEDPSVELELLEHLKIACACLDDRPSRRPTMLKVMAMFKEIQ
procedure_text: thermal shift delta Tm vs DMSO control; higher = stronger stabilization (binding)
setup_conditions: 12.5 µM; protein concentration 2 µM
Where a name gives a salt, the structure may show the parent alone.
The molecules listed here are annotated with their thermal shift delta Tm.
attribute_measured: thermal shift delta Tm (°C)

[[record]]
molecule = "O=C(NCc1cccc(O)c1)Nc1nc(-c2ccncc2)cs1"
value_reported = 1.09

[[record]]
molecule = "Cc1c[nH]c2nc(Nc3ccc(N4CCN(C)CC4)c(F)c3)nc(-c3cccc(CC#N)c3)c12"
value_reported = 13.5

[[record]]
molecule = "Cc1cc(NC(=O)c2cccc(NC(=O)/C=C/CN(C)C)c2)ccc1Nc1nccc(-c2cccnc2)n1"
value_reported = 0.75

[[record]]
molecule = "O=C(Nc1cnn2ccc(N3CCC[C@@H]3c3cc(F)ccc3F)nc12)N1CC[C@H](O)C1 [Larotrectinib (LOXO-101) sulfate]"
value_reported = 0.04


###

System: LOC_OS05G28520-cb001
procedure_text: thermal shift delta Tm vs DMSO control; higher = stronger stabilization (binding)
setup_conditions: 12.5 µM; protein concentration 2 µM
Returns label 1 if the recorded thermal shift delta Tm is greater than or equal to 0.5 °C, and label 0 otherwise.

[[record]]
compound = "Nc1cccc(S(=O)(=O)N2CCCN(S(=O)(=O)c3ccc4c(c3)OCCO4)CC2)c1"
class_label = "label 1"

[[record]]
compound = "CNC(=O)c1cc(Oc2ccc(NC(=O)Nc3ccc(Cl)c(C(F)(F)F)c3)cc2)ccn1 [Sorafenib]"
class_label = "label 0"

[[record]]
compound = "CO[C@H]1C[C@@H]2CC[C@@H](C)[C@@](O)(O2)C(=O)C(=O)N2CCCC[C@H]2C(=O)O[C@H]([C@H](C)C[C@@H]2CC[C@@H](OP(C)(C)=O)[C@H](OC)C2)CC(=O)[C@H](C)/C=C(\\C)[C@@H](O)[C@@H](OC)C(=O)[C@H](C)C[C@H](C)/C=C/C=C/C=C/1C [Ridaforolimus (Deforolimus, MK-8669)]"
class_label = "label 0"

[[record]]
compound = "CC(=O)Nc1cccc(-n2c(=O)n(C3CC3)c(=O)c3c(Nc4ccc(I)cc4F)n(C)c(=O)c(C)c32)c1"
class_label = "label 0"

[[record]]
compound = "Cc1cc(CN2CCN(c3c(Br)cnc4nc(-c5ccc(N6CCN(C)CC6)cc5)[nH]c34)CC2)no1"
class_label = "label 1"

[[record]]
compound = "Clc1ccc(C2(c3ccc(-c4cn[nH]c4)cc3)CCNCC2)cc1"
class_label = "label 0"

[[record]]
compound = "CCS(=O)(=O)Nc1ccc2c(c1)/C(=C(/Nc1ccc(CN3CCCCC3)cc1)c1ccccc1)C(=O)N2 [Hesperadin]"
class_label = "label 0"

[[record]]
compound = "CN1CCN(c2ccc(C(=O)Nc3n[nH]c4ccc(Cc5cc(F)cc(F)c5)cc34)c(NC3CCOCC3)c2)CC1 [Entrectinib (RXDX-101)]"
class_label = "label 1"

[[record]]
compound = "Cc1cc2c(F)c(Oc3ncnn4cc(OC[C@@H](C)OC(=O)[C@H](C)N)c(C)c34)ccc2[nH]1"
class_label = "label 1"

[[record]]
compound = "CC(C)(C)c1nc(-c2cccc(NS(=O)(=O)c3c(F)cccc3F)c2F)c(-c2ccnc(N)n2)s1"
class_label = "label 1"

[[record]]
compound = "CO[C@H]1C[C@@H]2CC[C@@H](C)[C@@](O)(O2)C(=O)C(=O)N2CCCC[C@H]2C(=O)O[C@H]([C@H](C)C[C@@H]2CC[C@H](n3cnnn3)[C@H](OC)C2)CC(=O)[C@H](C)/C=C(\\C)[C@@H](O)[C@@H](OC)C(=O)[C@H](C)C[C@H](C)/C=C/C=C/C=C/1C [Zotarolimus(ABT-578)]"
class_label = "label 1"

[[record]]
compound = "CNC(=O)c1ccc(Nc2ncc(C(F)(F)F)c(NCc3nccnc3N(C)S(C)(=O)=O)n2)cc1"
class_label = "label 1"

[[record]]
compound = "CCn1c(N)c(C(=O)NC)c(=O)c2ccc(C#CC(C)(O)COC)nc21 (stereo not drawn)"
class_label = "label 0"


###

Tested on: LOC_OS02G54510-cb004
procedure_text: thermal shift delta Tm vs DMSO control; higher = stronger stabilization (binding)
setup_conditions: 12.5 µM; protein concentration 2 µM
The compounds listed here are annotated with their thermal shift delta Tm.
attribute_measured: thermal shift delta Tm (°C)

[[record]]
compound = "Clc1ccc(Nc2nnc(Cc3ccncc3)c3ccccc23)cc1 [Vatalanib (PTK787) 2HCl]"
value_reported = 0.03

[[record]]
compound = "C[C@]1(O)C[C@@H](c2nc(-c3ccc4ccc(-c5ccccc5)nc4c3)c3c(N)nccn32)C1 [Linsitinib (OSI-906)]"
value_reported = 0.75

[[record]]
compound = "CCNC(=O)Nc1ccc(-c2nc(N3CCOC[C@@H]3C)c3c(n2)C(C)(C)S(=O)(=O)C3)cc1"
value_reported = 0.08

[[record]]
compound = "Cc1ccc(-n2nc(C(C)(C)C)cc2NC(=O)NCc2cc(F)ccc2Oc2ccc3c(cnn3CCO)c2)cc1 [Pexmetinib (ARRY-614)]"
value_reported = 2.56


###

Tested on: LOC_OS01G02750-cb003
procedure_text: thermal shift delta Tm vs DMSO control; higher = stronger stabilization (binding)
setup_conditions: 12.5 µM; protein concentration 2 µM
The compounds listed here are annotated with their thermal shift delta Tm.
attribute_measured: thermal shift delta Tm (°C)

[[record]]
compound = "NC(=O)Nc1cc(-c2cccc(F)c2)sc1C(=O)N[C@H]1CCCNC1"
attribute_measured = "thermal shift delta Tm"
result_units = "°C"
value_reported = 5.35

[[record]]
compound = "CNC(=O)c1ccccc1Nc1nc(Nc2ccc(N3CCOCC3)cc2OC)ncc1Cl"
attribute_measured = "thermal shift delta Tm"
result_units = "°C"
value_reported = 1.05

[[record]]
compound = "CCc1nc(C(N)=O)c(Nc2ccc(N3CCC(N4CCN(C)CC4)CC3)c(OC)c2)nc1NC1CCOCC1"
attribute_measured = "thermal shift delta Tm"
result_units = "°C"
value_reported = 2.42

[[record]]
compound = "Cc1cccc(Nc2nc(NC3CCCCC3N)ncc2C(N)=O)c1 (centres undefined)"
attribute_measured = "thermal shift delta Tm"
result_units = "°C"
value_reported = 1.48

[[record]]
compound = "Cc1cc(Nc2cc(N3CCN(C)CC3)nc(Sc3ccc(NC(=O)C4CC4)cc3)n2)n[nH]1"
attribute_measured = "thermal shift delta Tm"
result_units = "°C"
value_reported = 6.08

[[record]]
compound = "CCn1c(N)c(C(=O)NC)c(=O)c2ccc(C#CC(C)(O)COC)nc21 (centres undefined)"
attribute_measured = "thermal shift delta Tm"
result_units = "°C"
value_reported = 0.44

[[record]]
compound = "COc1cc2ncnc(Sc3nnc(C)s3)c2cc1OC"
attribute_measured = "thermal shift delta Tm"
result_units = "°C"
value_reported = 0.37

[[record]]
compound = "CN1CCC(COc2cnc(-c3cccc(Cn4nc(-c5cccc(C#N)c5)ccc4=O)c3)nc2)CC1"
attribute_measured = "thermal shift delta Tm"
result_units = "°C"
value_reported = 0.27

[[record]]
compound = "COc1cc2c(Oc3ccc4[nH]c(C)cc4c3F)ncnc2cc1OCCCN1CCCC1"
attribute_measured = "thermal shift delta Tm"
result_units = "°C"
value_reported = 0.39

